assay: Pharmacokinetic analysis of TEF in terms of GA-H after oral administration to rats (HPLC of plasma and urine); format: in vivo, Albino Wistar rats; settings: Albino Wistar, rat, plasma, po, 85 mg/kg
ASSAY ENDPOINT: AUC(0-inf) (ng·h/mL)
Numbers only; they are read as ng·h/mL.

Query: Fill in: AUC(0-inf) of CC(=O)O[C@@H]1C(=O)C2=C(C(=O)C[C@H]3C(C)(C)[C@@H](O)CC[C@]23C)[C@]2(C)C(=O)C[C@H]([C@H](C)CC(=O)CC(C)C(=O)O)[C@@]12C (stereo partly shown) [GA-H, ganoderic acid H] is ___
Reply: 9840
